These data points were gathered from the supplement of paper PMC10498489.

Tested on: HepG2 Srxn1-GFP reporter cells (+30 nM CDDO-Me)
Test: Srxn1-GFP intensity median modified Z-score relative to plate median; higher = stronger NRF2 / oxidative stress reporter activation, active = hit call of the paper
Settings: 10 µM; exposure time: 24h
About 330 (14%) of roughly 2,300 compounds showed activity. Only a sample is shown.
Kindly return Satisfied if reported Srxn1-GFP intensity median modified Z-score is no lower than 1; return Not satisfied if it is lower.

Examples from the recorded data:
INSERT INTO results (compound, assigned_label) VALUES
  ('c1ccc2c(c1)Nc1ccccc1S2 [euspeclibcmpd928]', 'Not satisfied'),
  ('O=C1C(Cl)=C(Cl)C(=O)C(Cl)=C1Cl [euspeclibcmpd1739]', 'Satisfied'),
  ('CN(C)C(=S)SSC(=S)N(C)C [euspeclibcmpd571]', 'Satisfied');

Q: Exam item: decide whether the reported Srxn1-GFP intensity median modified Z-score for O=C(N/N=C/c1ccc([N+](=O)[O-])o1)c1cc([N+](=O)[O-])cc([N+](=O)[O-])c1O [euspeclibcmpd462] is at least 1.
A: Satisfied

Q: Please tell me: is the compound CCC(C)C(=O)O[C@@H]1C[C@@]2(C)[C@H](c3ccoc3)OC(=O)CC23OC2(C)O[C@]14[C@]1(C)[C@@H](CC(=O)OC)C5(C)CC1(O)[C@](O)(C5OC(=O)C1(C)OC1C)[C@@H](OC(C)=O)[C@]34O2 (stereo partly specified) [euspeclibcmpd1590] at or over 1 in terms of Srxn1-GFP intensity median modified Z-score?
A: Satisfied

Q: Reported Srxn1-GFP intensity median modified Z-score at or above 1? C=CCN=C=S [euspeclibcmpd920]
A: Not satisfied
